# Tested on: Trypanosoma cruzi
# Test details: Antitrypanosomal activity against Trypanosoma cruzi epimastigotes
# Assay type: functional, organism-based
# Conditions: Trypanosoma cruzi
Measurement label: IC50 (µM)

[[record]]
cpd_smiles = "Cc1c2nc3ccccc3c-2[nH]c2ccccc12"
target_or_system = "Trypanosoma cruzi"
unit_descriptor = "µM"
experimental_result = 3.9

[[record]]
cpd_smiles = "Nc1ccccc1-c1cc[nH]c2c3ccccc3nc1-2"
target_or_system = "Trypanosoma cruzi"
unit_descriptor = "µM"
experimental_result = 34.4

[[record]]
cpd_smiles = "Cc1c(-c2ccccc2)c[nH]c2c3ccccc3nc1-2"
target_or_system = "Trypanosoma cruzi"
unit_descriptor = "µM"
experimental_result = 2.3

[[record]]
cpd_smiles = "CCc1c2nc3ccccc3c-2[nH]c2ccccc12"
target_or_system = "Trypanosoma cruzi"
unit_descriptor = "µM"
experimental_result = 2.8

[[record]]
cpd_smiles = "C[n+]1cccc2[nH]c3ccccc3c21.[Cl-]"
target_or_system = "Trypanosoma cruzi"
unit_descriptor = "µM"
experimental_result = 428

[[record]]
cpd_smiles = "c1ccc2nc3c(cc2c1)[nH]c1ccccc13"
target_or_system = "Trypanosoma cruzi"
unit_descriptor = "µM"
experimental_result = 8.7

[[record]]
cpd_smiles = "CCc1c2ccccc2[n+](C)c2c1[nH]c1ccccc12.O=S(=O)([O-])C(F)(F)F"
target_or_system = "Trypanosoma cruzi"
unit_descriptor = "µM"
experimental_result = 0.34

[[record]]
cpd_smiles = "Oc1ccc2[nH]c3cccnc3c2c1"
target_or_system = "Trypanosoma cruzi"
unit_descriptor = "µM"
experimental_result = 129

[[record]]
cpd_smiles = "c1ccc2nc(-c3cc[nH]c4c5ccccc5nc3-4)ccc2c1"
target_or_system = "Trypanosoma cruzi"
unit_descriptor = "µM"
experimental_result = 26.4

[[record]]
cpd_smiles = "c1ccc(-c2cc[nH]c3c4ccccc4nc2-3)cc1"
target_or_system = "Trypanosoma cruzi"
unit_descriptor = "µM"
experimental_result = 11.1

[[record]]
cpd_smiles = "C[n+]1c2ccccc2cc2[nH]c3ccccc3c21.O=S(=O)([O-])C(F)(F)F"
target_or_system = "Trypanosoma cruzi"
unit_descriptor = "µM"
experimental_result = 1.3

[[record]]
cpd_smiles = "Cn1c2c3ccccc3nc-2c(-c2ccccc2)c2ccccc21"
target_or_system = "Trypanosoma cruzi"
unit_descriptor = "µM"
experimental_result = 0.23


* * *

# System: Trypanosoma cruzi
# Test details: Antitrypanosomal activity against Trypanosoma cruzi epimastigotes
# Format: functional, organism-based
# Conditions: Trypanosoma cruzi
pIC50: −log10 of the molar value.
Classify by measured pIC50: yes if it is equal to or exceeds 5, no if it is smaller.

[[record]]
cpd_smiles = "Cc1c2ccccc2[n+](C)c2c1[nH]c1ccccc12.O=S(=O)([O-])C(F)(F)F"
target_or_system = "Trypanosoma cruzi"
class_label = "yes"

[[record]]
cpd_smiles = "c1ccc2c(c1)[nH]c1cccnc12"
target_or_system = "Trypanosoma cruzi"
class_label = "no"

[[record]]
cpd_smiles = "c1ccc(-c2c[nH]c3c4ccccc4nc-3c2)nc1"
target_or_system = "Trypanosoma cruzi"
class_label = "no"

[[record]]
cpd_smiles = "C[n+]1c2ccccc2c(-c2ccccc2)c2[nH]c3ccccc3c21.O=S(=O)([O-])C(F)(F)F"
target_or_system = "Trypanosoma cruzi"
class_label = "yes"

[[record]]
cpd_smiles = "c1ccc(-c2c[nH]c3c4ccccc4nc-3c2-c2ccccc2)cc1"
target_or_system = "Trypanosoma cruzi"
class_label = "no"

[[record]]
cpd_smiles = "c1ccc2nc(-c3c[nH]c4c5ccccc5nc-4c3)ccc2c1"
target_or_system = "Trypanosoma cruzi"
class_label = "no"

[[record]]
cpd_smiles = "CCc1cc[nH]c2c3ccccc3nc1-2"
target_or_system = "Trypanosoma cruzi"
class_label = "no"

[[record]]
cpd_smiles = "Cc1cc[nH]c2c3ccccc3nc1-2"
target_or_system = "Trypanosoma cruzi"
class_label = "yes"

[[record]]
cpd_smiles = "Clc1c2nc3ccccc3c-2[nH]c2ccccc12"
target_or_system = "Trypanosoma cruzi"
class_label = "yes"


* * *

# Tested on: Trypanosoma cruzi
# Test details: Antitrypanosomal activity against (Trypanosoma cruzi) trypomastigotes (concentration of compound tested on trypomastigote motility)
# Type: functional, organism-based
pIC50: −log10 of the molar value.
Measurement label: pIC50

[[record]]
cpd_smiles = "C[n+]1cccc2[nH]c3ccccc3c21.O=S(=O)([O-])C(F)(F)F"
experimental_result = 4.00


* * *

The entries below are paired with their reported IC50.
# Tested on: Trypanosoma cruzi
# Test details: Antitrypanosomal activity against Trypanosoma cruzi epimastigotes
# Format: functional, organism-based
# Conditions: Trypanosoma cruzi
Measurement label: IC50 (µM)

[[record]]
cpd_smiles = "c1ccc(-c2cc[nH]c3c4ccccc4nc2-3)nc1"
target_or_system = "Trypanosoma cruzi"
unit_descriptor = "µM"
comparison_symbol = "="
experimental_result = 58.4

[[record]]
cpd_smiles = "CC(C)c1c2ccccc2[n+](C)c2c1[nH]c1ccccc12.O=S(=O)([O-])C(F)(F)F"
target_or_system = "Trypanosoma cruzi"
unit_descriptor = "µM"
comparison_symbol = "="
experimental_result = 0.73

[[record]]
cpd_smiles = "CCc1c2nc3ccccc3c-2n(C)c2ccccc12"
target_or_system = "Trypanosoma cruzi"
unit_descriptor = "µM"
comparison_symbol = "="
experimental_result = 3.2

[[record]]
cpd_smiles = "Cn1cccc2nc3ccccc3c1-2"
target_or_system = "Trypanosoma cruzi"
unit_descriptor = "µM"
comparison_symbol = ">"
experimental_result = 550

[[record]]
cpd_smiles = "O=C(c1c2nc3ccccc3c-2[nH]c2ccccc12)c1c2nc3ccccc3c-2[nH]c2ccccc12"
target_or_system = "Trypanosoma cruzi"
unit_descriptor = "µM"
comparison_symbol = ">"
experimental_result = 200

[[record]]
cpd_smiles = "c1csc(-c2cnc3c(c2)[nH]c2ccccc23)c1"
target_or_system = "Trypanosoma cruzi"
unit_descriptor = "µM"
comparison_symbol = "="
experimental_result = 6.8


* * *

Listing: IS of selected compounds
# System: Plasmodium falciparum
# Test details: Selectivity index against Plasmodium falciparum
# Assay type: functional
Measurement label: IS

[[record]]
cpd_smiles = "CC(C)c1c2nc3ccccc3c-2n(C)c2ccccc12"
target_or_system = "Plasmodium falciparum"
measurement_label = "IS"
experimental_result = 10.6

[[record]]
cpd_smiles = "C[n+]1c2ccccc2cc2[nH]c3ccccc3c21.O=S(=O)([O-])C(F)(F)F"
target_or_system = "Plasmodium falciparum"
measurement_label = "IS"
experimental_result = 24.5

[[record]]
cpd_smiles = "c1ccc(-c2c[nH]c3c4ccccc4nc-3c2-c2ccccc2)cc1"
target_or_system = "Plasmodium falciparum"
measurement_label = "IS"
experimental_result = ">0.6"

[[record]]
cpd_smiles = "c1ccc(-c2c[nH]c3c4ccccc4nc-3c2)cc1"
target_or_system = "Plasmodium falciparum"
measurement_label = "IS"
experimental_result = 0.3

[[record]]
cpd_smiles = "C[n+]1c2ccccc2c(-c2ccccc2)c2[nH]c3ccccc3c21.O=S(=O)([O-])C(F)(F)F"
target_or_system = "Plasmodium falciparum"
measurement_label = "IS"
experimental_result = 6.2

[[record]]
cpd_smiles = "c1ccc(-c2cc[nH]c3c4ccccc4nc2-3)nc1"
target_or_system = "Plasmodium falciparum"
measurement_label = "IS"
experimental_result = 2.3


* * *

# System: Plasmodium falciparum
# Test details: Selectivity index against Plasmodium falciparum
# Type: functional
Below is a list of entries, each paired with its recorded IS value.
Measurement label: IS

[[record]]
cpd_smiles = "CC(C)c1c2ccccc2[n+](C)c2c1[nH]c1ccccc12.O=S(=O)([O-])C(F)(F)F"
target_or_system = "Plasmodium falciparum"
measurement_label = "IS"
comparison_symbol = "="
experimental_result = 12.6

[[record]]
cpd_smiles = "Cc1c2nc3ccccc3c-2[nH]c2ccccc12"
target_or_system = "Plasmodium falciparum"
measurement_label = "IS"
comparison_symbol = "="
experimental_result = 0.25

[[record]]
cpd_smiles = "O=C(c1c2nc3ccccc3c-2[nH]c2ccccc12)c1c2nc3ccccc3c-2[nH]c2ccccc12"
target_or_system = "Plasmodium falciparum"
measurement_label = "IS"
comparison_symbol = "="
experimental_result = 2.4

[[record]]
cpd_smiles = "C[n+]1cccc2[nH]c3ccccc3c21.[Cl-]"
target_or_system = "Plasmodium falciparum"
measurement_label = "IS"
comparison_symbol = ">"
experimental_result = 138

[[record]]
cpd_smiles = "Cc1cc[nH]c2c3ccccc3nc1-2"
target_or_system = "Plasmodium falciparum"
measurement_label = "IS"
comparison_symbol = "="
experimental_result = 1.8

[[record]]
cpd_smiles = "c1ccc2nc3c(cc2c1)[nH]c1ccccc13"
target_or_system = "Plasmodium falciparum"
measurement_label = "IS"
comparison_symbol = "="
experimental_result = 1.3

[[record]]
cpd_smiles = "CCc1c2ccccc2[n+](C)c2c1[nH]c1ccccc12.O=S(=O)([O-])C(F)(F)F"
target_or_system = "Plasmodium falciparum"
measurement_label = "IS"
comparison_symbol = "="
experimental_result = 14.1

[[record]]
cpd_smiles = "Cn1c2c3ccccc3nc-2c(-c2ccccc2)c2ccccc21"
target_or_system = "Plasmodium falciparum"
measurement_label = "IS"
comparison_symbol = "="
experimental_result = 5.5

[[record]]
cpd_smiles = "Cc1c2nc3ccccc3c-2n(C)c2ccccc12"
target_or_system = "Plasmodium falciparum"
measurement_label = "IS"
comparison_symbol = "="
experimental_result = 41.9

[[record]]
cpd_smiles = "Cc1c2ccccc2[n+](C)c2c1[nH]c1ccccc12.O=S(=O)([O-])C(F)(F)F"
target_or_system = "Plasmodium falciparum"
measurement_label = "IS"
comparison_symbol = "="
experimental_result = 22.5

[[record]]
cpd_smiles = "c1csc(-c2ccnc3c2[nH]c2ccccc23)c1"
target_or_system = "Plasmodium falciparum"
measurement_label = "IS"
comparison_symbol = "="
experimental_result = 0.12

[[record]]
cpd_smiles = "c1ccc(-c2cc[nH]c3c4ccccc4nc2-3)cc1"
target_or_system = "Plasmodium falciparum"
measurement_label = "IS"
comparison_symbol = "="
experimental_result = 0.4

[[record]]
cpd_smiles = "CCc1cc[nH]c2c3ccccc3nc1-2"
target_or_system = "Plasmodium falciparum"
measurement_label = "IS"
comparison_symbol = "="
experimental_result = 0.7

[[record]]
cpd_smiles = "Nc1ccccc1-c1c[nH]c2c3ccccc3nc-2c1"
target_or_system = "Plasmodium falciparum"
measurement_label = "IS"
comparison_symbol = "="
experimental_result = 0.5

[[record]]
cpd_smiles = "CCc1c2nc3ccccc3c-2n(C)c2ccccc12"
target_or_system = "Plasmodium falciparum"
measurement_label = "IS"
comparison_symbol = "="
experimental_result = 5.5

[[record]]
cpd_smiles = "c1ccc(-c2c[nH]c3c4ccccc4nc-3c2)nc1"
target_or_system = "Plasmodium falciparum"
measurement_label = "IS"
comparison_symbol = "="
experimental_result = 9.2

[[record]]
cpd_smiles = "Clc1c2nc3ccccc3c-2[nH]c2ccccc12"
target_or_system = "Plasmodium falciparum"
measurement_label = "IS"
comparison_symbol = "="
experimental_result = 1.7

[[record]]
cpd_smiles = "c1ccc2c(c1)[nH]c1cccnc12"
target_or_system = "Plasmodium falciparum"
measurement_label = "IS"
comparison_symbol = "="
experimental_result = 2.2

[[record]]
cpd_smiles = "CCc1c2nc3ccccc3c-2[nH]c2ccccc12"
target_or_system = "Plasmodium falciparum"
measurement_label = "IS"
comparison_symbol = "="
experimental_result = 0.7

[[record]]
cpd_smiles = "C[n+]1cccc2[nH]c3ccccc3c21.O=S(=O)([O-])C(F)(F)F"
target_or_system = "Plasmodium falciparum"
measurement_label = "IS"
comparison_symbol = ">"
experimental_result = 100

[[record]]
cpd_smiles = "Cn1cccc2nc3ccccc3c1-2"
target_or_system = "Plasmodium falciparum"
measurement_label = "IS"
comparison_symbol = ">"
experimental_result = 100

[[record]]
cpd_smiles = "Oc1ccc2[nH]c3cccnc3c2c1"
target_or_system = "Plasmodium falciparum"
measurement_label = "IS"
comparison_symbol = "="
experimental_result = 4.2

[[record]]
cpd_smiles = "c1ccc2nc(-c3cc[nH]c4c5ccccc5nc3-4)ccc2c1"
target_or_system = "Plasmodium falciparum"
measurement_label = "IS"
comparison_symbol = "="
experimental_result = 2.6

[[record]]
cpd_smiles = "Cc1c(-c2ccccc2)c[nH]c2c3ccccc3nc1-2"
target_or_system = "Plasmodium falciparum"
measurement_label = "IS"
comparison_symbol = "="
experimental_result = 0.9

[[record]]
cpd_smiles = "c1csc(-c2cnc3c(c2)[nH]c2ccccc23)c1"
target_or_system = "Plasmodium falciparum"
measurement_label = "IS"
comparison_symbol = "="
experimental_result = 3.2

[[record]]
cpd_smiles = "Nc1ccccc1-c1cc[nH]c2c3ccccc3nc1-2"
target_or_system = "Plasmodium falciparum"
measurement_label = "IS"
comparison_symbol = "="
experimental_result = 0.7

[[record]]
cpd_smiles = "c1ccc2nc(-c3c[nH]c4c5ccccc5nc-4c3)ccc2c1"
target_or_system = "Plasmodium falciparum"
measurement_label = "IS"
comparison_symbol = "="
experimental_result = 1.6


Origin of the recorded values: ChEMBL document CHEMBL1134377
